All figures here come from paper PMC7089779.

pIC50 reference
System: T. brucei brucei trypomastigotes NTR over-expressing strain
method summary: Bioactivation study, strain overexpressing the nitroreductase
Assay type: cell-based, Trypanosoma brucei
assay context: Trypanosoma brucei, 72 h, read-out: IC50 T. brucei brucei trypomastigotes NTR over-expressing strain
Value format note: pIC50 is -log10 of concentration (mol/L); just state the number.

compound	pIC50
O=C(O)c1ccc(-c2cc3cccc([N+](=O)[O-])c3[nH]c2=O)cc1	5.38

Now for a further compound.
Incoming: Can you share its pIC50? I mean this compound: CC1CS(=O)(=O)CCN1/N=C/c1ccc([N+](=O)[O-])o1 (centres unmarked) [Nifurtimox, reference compound]
Outgoing: 6.22
